target: Nrf2-Keap1 complex (Homo sapiens, UniProt Q14145); test: cell-based; format: cell-based; details: 3 h, read-out: Activation 200 nL
Sequence (Q14145 whole entry, one chain of several): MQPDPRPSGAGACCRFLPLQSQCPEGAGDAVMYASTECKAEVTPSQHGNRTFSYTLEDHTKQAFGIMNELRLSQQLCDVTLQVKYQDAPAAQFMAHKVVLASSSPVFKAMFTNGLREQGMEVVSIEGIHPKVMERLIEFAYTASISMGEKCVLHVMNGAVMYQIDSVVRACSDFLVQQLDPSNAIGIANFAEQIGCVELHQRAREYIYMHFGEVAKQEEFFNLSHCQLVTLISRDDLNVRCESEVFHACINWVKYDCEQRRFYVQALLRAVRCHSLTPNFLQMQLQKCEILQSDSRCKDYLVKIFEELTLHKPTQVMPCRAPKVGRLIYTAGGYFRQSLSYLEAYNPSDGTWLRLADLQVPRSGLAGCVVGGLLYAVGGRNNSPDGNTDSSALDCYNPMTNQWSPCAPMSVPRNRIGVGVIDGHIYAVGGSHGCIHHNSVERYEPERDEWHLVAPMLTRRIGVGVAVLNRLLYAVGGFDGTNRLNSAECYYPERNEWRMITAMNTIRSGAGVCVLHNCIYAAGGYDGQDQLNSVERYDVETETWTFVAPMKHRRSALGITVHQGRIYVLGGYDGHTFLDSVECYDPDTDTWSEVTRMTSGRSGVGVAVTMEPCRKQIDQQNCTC
property_measured: activation at 32 µM (%)
Give bare numbers, in %.

molecule	experimental_system	unit_abbreviation	activation at 32 µM
Oc1nc2cc(Cl)c(Cl)cc2nc1O [2,3-DIHYDROXY-6,7-DICHLOROQUINOXALINE]	Nrf2-Keap1 complex (Homo sapiens, UniProt Q14145)	%	109

Record activation at 32 µM per entry; entries follow.
1. Nc1nc(N)c2nc(-c3ccccc3)c(N)nc2n1 [reference compound]
2. CC1(C)C2CC(=O)O[C@@]3(C)C4=CC(=O)O[C@@H](c5ccoc5)[C@]4(C)CCC3[C@@]2(C)C=C[C@H]1O (some centres unmarked) [DEOXYANDIROBINLACTONE]
3. CNc1ccccc1C(=O)N1CCc2c([nH]c3ccccc23)C1=O [RHETSININE]
4. O=C(CC(=O)c1ccccc1)c1ccccc1 [DIBENZOYLMETHANE]
5. CC1CCC(NC(=O)N(CCCl)N=O)CC1 (centres unmarked) [SEMUSTINE, reference compound]
6. O=C1c2ccccc2C(=O)c2c(O)c(O)cc(O)c21 [PURPURIN]
7. COc1cc([C@@H]2c3cc4c(cc3[C@@H](O[C@@H]3O[C@@H]5CO[C@@H](c6cccs6)O[C@H]5[C@H](O)[C@H]3O)[C@H]3COC(=O)[C@H]23)OCO4)cc(OC)c1O [TENIPOSIDE, reference compound]

1. 23
2. 52
3. 4
4. -8
5. 144
6. 41
7. 61

Provide activation at 32 µM for all items below, preserving their order.
1. S=c1ccss1 [3H-1,2-DITHIOLE-3-THIONE]
2. COc1ccc(-c2oc3ccccc3c(=O)c2O)cc1OC [3-HYDROXY-3′,4′-DIMETHOXYFLAVONE]
3. COc1ccc(-c2oc3cc(O[C@@H]4O[C@H](CO)[C@@H](O)[C@H](O)[C@H]4O)c(OC)c(O)c3c(=O)c2OC)cc1O [CENTAUREIN]

127
-6
19

Below are some molecules; for each one, tell me its activation at 32 µM.
1. COc1ccc2c(c1)OCc1c-2oc2cc(OC)ccc12 [DEHYDROVARIABILIN]
2. COc1c(O)cc2c(-c3ccccc3)cc(=O)oc2c1OC [KUHLMANNIN]
3. CN1CCN(CC/C=C2/c3ccccc3Sc3ccc(S(=O)(=O)N(C)C)cc32)CC1 [THIOTHIXENE, reference compound]
4. O=[N+]([O-])c1cccc2c(Br)n[nH]c12 [3-BROMO-7-NITROINDAZOLE]
5. COc1ccc2c(c1)[C@@]1(C)CCC(=O)C[C@H]1CC2

[39, 33, -26, 8, 13]

activation at 32 µM for CC(=O)OC[C@@]1(O)C[C@@]23CC[C@@H]4c5ccoc5CC[C@@]4(C)[C@@H]2CC[C@@H]1C3 [CAFESTOLACETATE] is 67

* * *

biological target: Nrf2-Keap1 complex (Homo sapiens, UniProt Q14145); assay: cell-based; assay type: cell-based; settings: 3 h, read-out: Activation 200 nL
property_measured: activation at 32 µM (%)
Answers are plain numbers, in %.

compound	unit_abbreviation	activation at 32 µM
CSc1nc(NC(C)C)nc(NC(C)C)n1	%	4
COC(=O)Nc1nc2cc(C(=O)c3cccs3)ccc2[nH]1 [NOCODAZOLE, reference compound]	%	48
COc1ccc(C(=O)/C=C/c2ccccc2)cc1	%	-15
O=c1c(O)c(-c2ccc(O)c(O)c2)oc2cc(O)ccc12	%	38
CC(=O)Oc1cc(-c2coc3cc(OC(C)=O)c(OC(C)=O)c(OC(C)=O)c3c2=O)cc(OC(C)=O)c1OC(C)=O [IRIGINOLHEXAACEATATE]	%	58
COc1ccnc(C[S+]([O-])c2nc3cc(OC(F)F)ccc3[nH]2)c1OC (stereo not drawn) [PANTOPRAZOLE, reference compound]	%	60
CC1=C(CC(=O)O)c2cc(F)ccc2/C1=C\c1ccc([S+](C)[O-])cc1 (stereo not drawn) [reference compound]	%	188
COc1cc(/C=C/CO)ccc1O	%	79

Okay, now this compound:
Observed activation at 32 µM, Nrf2-Keap1 complex (Homo sapiens, UniProt Q14145), COC1=CC(=O)C(C(=O)c2ccccc2)=CC1=O : 83

* * *

biological target: Nrf2-Keap1 complex (Homo sapiens, UniProt Q14145); experiment: cell-based; format: cell-based; details: 3 h, read-out: Activation 200 nL
property_measured: activation at 32 µM (%)
Numbers only, in %.

Consider the worked cases shown below.
molecule	property_measured	unit_abbreviation	endpoint_result
CCC(C)C(=O)c1c(O)c(C)c2oc3c(C)c(O)c(C(=O)C(C)CC)c(O)c3c2c1O (stereo not shown)	activation at 32 µM	%	36
CC(C)=CCC[C@@H](C)[C@@H]1CC[C@]2(C)C3=C(CC[C@@]12C)[C@@]1(C)CC[C@H](O)C(C)(C)[C@@H]1CC3	activation at 32 µM	%	74
Cc1cccc2c3c(ccc12)C1=C(C(=O)C3=O)[C@@H](C)CO1 [DIHYDROTANSHINONEI]	activation at 32 µM	%	5

Kindly give each listed record's activation at 32 µM.
1. C=C(CC)C(=O)c1ccc(OCC(=O)O)c(Cl)c1Cl [reference compound]
2. CCCOc1ccc2nc(NC(=O)OC)[nH]c2c1 [OXIBENDAZOLE, reference compound]
3. CC(C)CCCC1(C)C=Cc2c(O)c3c(c(CCC(C)C)c2O1)OC12C(CC4CC1C(C)(C)OC2(CCC(C)C(=O)O)C4O)C3=O (stereo not shown) [DECAHYDROGAMBOGICACID]

156
36
40

Note to self: activation at 32 µM of C[C@]12CCC(=O)C=C1C=C[C@@H]1[C@@H]2CC[C@@]2(C)[C@H]1CC[C@@]21CCC(=O)O1 [CANRENONE, reference compound] with Nrf2-Keap1 complex (Homo sapiens, UniProt Q14145) was 23

* * *

biological target: Nrf2-Keap1 complex (Homo sapiens); assay: cell-based; assay type: cell-based
Lab note: compare Activation 100 nL against 40%. Equal or greater, write yes (1). Smaller, write no (0).

compound	category_label
O=C(C=C(O)c1ccccc1)c1ccccc1O [2′,beta-DIHYDROXYCHALCONE]	yes (1)
O=C(/C=C/c1ccccc1)c1ccc(O[C@@H]2O[C@H](CO)[C@@H](O)[C@H](O)[C@H]2O)cc1O [2′,4′-DIHYDROXYCHALCONE4′-GLUCOSIDE]	no (0)
CC(=O)O[C@H]1C[C@@H](O)C(C)(C)[C@@H]2C[C@@H](OC(C)=O)[C@]3(C)[C@H](CC[C@@]4(C)[C@@H](c5ccoc5)OC(=O)[C@H]5O[C@@]534)[C@@]12C [3-DEACETYLKHIVORIN]	yes (1)
COC(=O)CC[C@@H](C)[C@H]1CC[C@H]2[C@@H]3[C@H](O)C[C@@H]4C[C@H](O)CC[C@]4(C)[C@H]3C[C@H](O)[C@]12C [CHOLICACID, METHYLESTER]	no (0)

Please look at the following compound next.
Quick check, Activation 100 nL >= 40%? N.N.[Cl][Pt][Cl] [CISPLATIN, reference compound]
no (0)

* * *

Assignment: determine reported activation at 16 µM for the given compounds.
molecular target: Nrf2-Keap1 complex (Homo sapiens); assay: cell-based; assay type: cell-based; settings: 3 h, read-out: Activation 100 nL
Structures can show the parent of a compound that is named as a salt.
Answers are plain numbers, in %.

Some solved entries appear below for comparison.
compound	experimental_system	endpoint_result
CN1CCc2cccc3c2[C@H]1Cc1ccc(O)c(O)c1-3 [APOMORPHINEHYDROCHLORIDE, reference compound]	Nrf2-Keap1 complex (Homo sapiens)	44
O=C1CN(/N=C/c2ccc([N+](=O)[O-])o2)C(=O)N1 [NITROFURANTOIN, reference compound]	Nrf2-Keap1 complex (Homo sapiens)	30
CC(C)c1ccc2c(c1O)CC[C@H]1C3=C(CC[C@]21C)C(=O)OC3 [TRIPTOPHENOLIDE]	Nrf2-Keap1 complex (Homo sapiens)	35
CCC(C)C(=O)c1c(O)c(C)c2oc3c(C)c(O)c(C(=O)C(C)CC)c(O)c3c2c1O (stereo not shown) [RHODOMYRTOXINB]	Nrf2-Keap1 complex (Homo sapiens)	56

Please give activation at 16 µM, item by item, for the list that follows.
1. CC1(C)C(C(Cl)Cl)C2(Cl)C(Cl)C(Cl)C1(Cl)C2(Cl)Cl (stereo not shown) [TOXAPHENE]
2. COc1cc(C/C=C/c2ccccc2)c(OC)cc1O [VIOLASTYRENE]
3. COC(=O)[C@H]1[C@H]2C[C@@H]3c4[nH]c5cc(OC)ccc5c4CCN3C[C@H]2C[C@@H](OC(=O)c2cc(OC)c(OC)c(OC)c2)[C@@H]1OC [RESERPINE, reference compound]

1: 395; 2: 133; 3: 36
